Reference for the values: patent US20090162358A1

SUBJECT_OF_TEST: T1, human β-amyloid 1-40 (human, UniProt P05067 672-711)
T1 construct: domain: β-amyloid (1-40); Used in solution over captured antibody (Biacore) or coated on ELISA plates; also called human Aβ peptide (1-40); Aβ peptide (1-40)
PROCEDURE_TEXT: SPR Biacore T100 at 37 C; antibody captured on anti-human IgG, Aβ 1-40 at 1-256 nM
For each of the binders below, state its Kd.
Provide the reading as a plain figure in nM.

I have this binder here, humanised de-immunised construct H50L21 (antibody, human IgG1, V domains shown) VH: QVQLVQSGAEVKEPGASVKVSCTGSGFNIHVYYVHWLRQLPEKGLEWIGRIDPENGETIYTPKFQDKATLTVDTSTDTAYMELSSLRSEDTAVYYCVSSGYWGQGTLVTVSS VL: DIVMTQSPLSNPVTPGEPASISCRSSKSLLHRNGKTYLYWYLQKPGQSPQLLIYQMDNLASGVPDRFSSSGSGTDFTLKISRVEAEDVGVYYCAQNLELWTFGQGTKVEIK , and I need its recorded Kd.
2.7

I have this binder here, humanised de-immunised construct H50L20 (antibody, human IgG1, V domains shown) VH: QVQLVQSGAEVKEPGASVKVSCTGSGFNIHVYYVHWLRQLPEKGLEWIGRIDPENGETIYTPKFQDKATLTVDTSTDTAYMELSSLRSEDTAVYYCVSSGYWGQGTLVTVSS VL: DIVMTQSPLSNPVTPGEPASISCRSSKSLLHRNGITYLYWYLQKPGQSPQLLIYQMDHLASGVPDRFSSSGSGTDFTLKISRVEAEDVGVYYCAQNLELWTFGQGTKVEIK , and I need its recorded Kd.
3.5

I have this binder here, humanised de-immunised construct H48L20 (antibody, human IgG1, V domains shown) VH: QVQLVQSGAEVKEPGASVKVSCKGSGFNIHVYYVHWLRQLPEKGLEWIGRIDPENGETIYTPKFQDKATLTVDTSTDTAYMELSSLRSEDTAVYYCVSSGYWGQGTLVTVSS VL: DIVMTQSPLSNPVTPGEPASISCRSSKSLLHRNGITYLYWYLQKPGQSPQLLIYQMDHLASGVPDRFSSSGSGTDFTLKISRVEAEDVGVYYCAQNLELWTFGQGTKVEIK , and I need its recorded Kd.
3.54
